Assay: Dog plasma PK, IV and oral
Assay type: in vivo
Conditions: male, Beagle, dog, plasma, po, 5.1 mg/kg, Oral 5.1 mg kg-1, Dog 1
Value Kind: AUC(0-inf) (µM·h)
Hi! Could you send only the number? It should be in µM·h, unit omitted.

Q: Would you mind telling me what AUC(0-inf) value was observed for `Cc1nc(Nc2ncc(N3CCN(C)[C@H](C)C3)c(Nc3cc(C)n(C)n3)n2)cc(C2CC2)c1F` ?
Result: 5.87

---

Assay: Dog plasma PK, IV and oral
Format: in vivo
Conditions: male, Beagle, dog, plasma, po, 5.1 mg/kg, Oral 5.1 mg kg-1, Dog 2
Value Kind: AUC(0-inf) (µM·h)
Hi! Could you send only the number? It should be in µM·h, unit omitted.

Q: Would you mind telling me what AUC(0-inf) value was observed for `Cc1nc(Nc2ncc(N3CCN(C)[C@H](C)C3)c(Nc3cc(C)n(C)n3)n2)cc(C2CC2)c1F` ?
Result: 8.28
